# System: K-562 leukemia
# PROTOCOL TEXT: NCI-60 one-dose screen, 48 h (100 = growth as untreated, 0 = no growth, -100 = all killed)
# TEST CONTEXT: 10 µM unless noted
The panel holds about 83,000 compounds, 20% with a hit somewhere; the sample as a whole holds those more often.
Could you label it condition met if measured growth is 30% or higher, and condition not met otherwise?

Textbook exercise: given the entry `ClC(Cl)c1nc(-c2cccs2)n2nc(-c3ccccc3)cc2n1` , state whether its growth is greater than or equal to 30%.
condition not met

Here is the next compound: `O=C1[C@@H]2Cc3c([nH]c4ccccc34)[C@H](c3c(Cl)cccc3Cl)N2C(=O)CN1C1CCN(Cc2ccccc2)CC1`
condition not met
